molecular target: Human recombinant sEH (Homo sapiens, UniProt P34913); assay: sEH enzyme kinetics (Lineweaver–Burk and Dixon plots); details: Dixon plot analysis
Sequence (P34913 whole entry): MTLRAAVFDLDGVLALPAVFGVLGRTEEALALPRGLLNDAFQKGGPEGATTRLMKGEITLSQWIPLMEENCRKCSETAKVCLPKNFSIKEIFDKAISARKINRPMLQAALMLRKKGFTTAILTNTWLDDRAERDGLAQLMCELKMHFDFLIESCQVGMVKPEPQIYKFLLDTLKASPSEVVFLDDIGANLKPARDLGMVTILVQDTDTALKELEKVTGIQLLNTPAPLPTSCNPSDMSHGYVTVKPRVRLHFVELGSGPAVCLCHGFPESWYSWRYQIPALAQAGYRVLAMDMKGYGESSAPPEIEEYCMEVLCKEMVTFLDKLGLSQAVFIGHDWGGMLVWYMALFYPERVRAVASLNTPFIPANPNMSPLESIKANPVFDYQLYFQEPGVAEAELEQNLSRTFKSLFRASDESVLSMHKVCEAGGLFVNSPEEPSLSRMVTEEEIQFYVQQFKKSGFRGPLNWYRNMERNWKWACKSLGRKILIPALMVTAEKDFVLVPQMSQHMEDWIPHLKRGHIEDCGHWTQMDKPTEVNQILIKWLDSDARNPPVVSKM
pKi: −log10 of the molar value.
MEASUREMENT_KIND: pKi

# example entries with known answers
[
  {
    "SMILES_STRUCTURE": "COc1c(CC=C(C)C)c(O)cc2oc(=O)c3c4ccc(O)cc4oc3c12",
    "pKi": 4.39
  },
  {
    "SMILES_STRUCTURE": "O=C(/C=C/c1ccc(O[C@@H]2O[C@H](CO)[C@@H](O)[C@H](O)[C@H]2O)cc1)c1ccc(O)cc1O",
    "pKi": 4.31
  },
  {
    "SMILES_STRUCTURE": "COc1ccc(-c2coc3cc(O[C@@H]4O[C@H](CO)[C@@H](O)[C@H](O)[C@H]4O)ccc3c2=O)cc1",
    "pKi": 4.26
  },
  {
    "SMILES_STRUCTURE": "O=C(/C=C/c1ccc(O)cc1)c1ccc(O)cc1O",
    "pKi": 4.62
  },
  {
    "SMILES_STRUCTURE": "COc1cc(O)ccc1C(=O)/C=C/c1ccc(O)cc1",
    "pKi": 4.70
  }
]

A = CC(C)=CCc1cc(-c2coc3cc(O)c(CC=C(C)C)c(O)c3c2=O)cc(O)c1O
B = COc1c(CC=C(C)C)c(O)cc2oc(=O)c(-c3ccc(O)cc3O)cc12
INPUT: Which record shows the lower pKi: the first, A , or the second, B ? Please identify the chosen entry by its label.
OUTPUT: A
(A: 4.12, B: 5.70)

====

molecular target: Human recombinant sEH (Homo sapiens); assay: sEH assay (fluorescent substrate hydrolysis, inhibitory activity and IC50); conditions: sEH inhibition
pIC50: −log10 of the molar value.
MEASUREMENT_KIND: pIC50

[
  {
    "SMILES_STRUCTURE": "O=C1C[C@@H](c2ccc(O)cc2)Oc2cc(O)ccc21",
    "NUMERIC_READOUT": 4.40
  },
  {
    "SMILES_STRUCTURE": "O=C(/C=C/c1ccc(O[C@@H]2O[C@H](CO)[C@@H](O)[C@H](O)[C@H]2O)cc1)c1ccc(O)cc1O",
    "NUMERIC_READOUT": 4.59
  }
]

A = O=C(/C=C/c1ccc(O)cc1)c1ccc(O)cc1O
B = CC(C)=CCc1cc(-c2coc3cc(O)c(CC=C(C)C)c(O)c3c2=O)cc(O)c1O
INPUT: // task: argmin of pIC50 over [ A , B ] Write the label of whichever entry you select.
OUTPUT: B

====

biological target: Human recombinant sEH (Homo sapiens); assay: sEH assay (fluorescent substrate hydrolysis, inhibitory activity and IC50); conditions: sEH inhibition
pIC50: −log10 of the molar value.
MEASUREMENT_KIND: pIC50

Answered cases to consult:
[
  {
    "SMILES_STRUCTURE": "COc1c(CC=C(C)C)c(O)cc2oc(=O)c3c4ccc(O)cc4oc3c12",
    "MEASUREMENT_KIND": "pIC50",
    "NUMERIC_READOUT": 4.37
  },
  {
    "SMILES_STRUCTURE": "COc1cc(O)ccc1C(=O)/C=C/c1ccc(O)cc1",
    "MEASUREMENT_KIND": "pIC50",
    "NUMERIC_READOUT": 4.79
  }
]

A = COc1c(CC=C(C)C)c(O)cc2oc(=O)c(-c3ccc(O)cc3O)cc12
B = COc1ccc(-c2coc3cc(O[C@@H]4O[C@H](CO)[C@@H](O)[C@H](O)[C@H]4O)ccc3c2=O)cc1
INPUT: Task for the reader: decide whether A or B has the larger pIC50. Please indicate the selected item by its label.
OUTPUT: A
(A: 5.72, B: 4.45)
